System: THRa:RXRa (NR concentration 90 nM, RXRa partner concentration 90 nM)
Experiment: PBM binding z-score (relative to random genomic background probes); higher = stronger binding; sequences stand for … in GC…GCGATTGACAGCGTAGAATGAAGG
READOUT_KIND: PBM binding z-score
// print number alone

Here is how some sequences turned out for PBM binding z-score.
>>> readout_value("TTACTAAGGTGAAAGGTCGTTGATGCACGCCTTG")
4
>>> readout_value("CCGAGTAGGTTATGGAGCATTCAGGCAACGGTGA")
0.145
>>> readout_value("TCTAGTTGGTCACGGAGGTCTCACACGACGGGTA")
0.636
>>> readout_value("CCTAGTTGGTCAAGGTCACTCACGCTATAGGTAC")
3.83

QUERY: Reported PBM binding z-score for CCAGACAGGTGAACGGTAACTCAGTCTGGTACGC : what is it?
RESULT: 0.0165

QUERY: Also, TATACAGGGTCAAAGGACAGAGTACGAATGTCGA please.
RESULT: 3.7

QUERY: Also, TCTATTAGTTGAGGGGCAACCGACGAGTCCGTTT please.
RESULT: 0.432

QUERY: Also, ATCGAAAGGTCGAGGTGAGTCTAGAGAAAGGGAA please.
RESULT: 3.01

----------
System: RARb:RXRa (NR concentration 270 nM, RXRa partner concentration 90 nM)
Assay: PBM binding z-score (relative to random genomic background probes); higher = stronger binding; sequences stand for … in GC…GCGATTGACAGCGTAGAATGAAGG
READOUT_KIND: PBM binding z-score
// print number alone

Here is how some sequences turned out for PBM binding z-score.
>>> readout_value("CCGACTGGGGCATAGGGTTACCATAAGCCAGCCC")
1.25
>>> readout_value("CCTGCTAGGTCATGGTTAGCTAATCTACAGTATG")
3.65
>>> readout_value("CCTACTGAGCCAAGGTCATTGATCAGTCAAAGCA")
3.15
>>> readout_value("CCTTACGGGTCACGAGGTTATCGCACGACGAGCG")
4.5
>>> readout_value("GCGACTGGGGCATCAGCAGATTACCATAACTTAA")
0.39

Field: next sequence
QUERY: Reported PBM binding z-score for CTACCAAGGTTAACAAGGTCGTTGATTACTATTC : what is it?
RESULT: 2.81

----------
Tested on: PPARg:RXRa IVT, anti-PPARg (NR concentration 270 nM, RXRa partner concentration 90 nM)
Test: PBM binding z-score (relative to random genomic background probes); higher = stronger binding; sequences stand for … in GC…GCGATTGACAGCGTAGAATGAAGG
READOUT_KIND: PBM binding z-score
// print number alone

>>> readout_value("TTAACAAGGTGAGCTGAGGTCGTTGATCCAACTC")
2.33

QUERY: Reported PBM binding z-score for ATCTCTAGGTAAGACTCAGTTCAGTGAGGAACGC : what is it?
RESULT: 1.26

QUERY: Also, CCGACTGGGGCGAGGTTACCATAACGCACAGCCA please.
RESULT: 0.726

QUERY: Also, AGTAGCAGGCCAAGTTTGGGTCACTCAAACAAAG please.
RESULT: 1.17

QUERY: Also, GCTCCGAGGACAAGGTCAGAGCTTTGTCCGTAGA please.
RESULT: 0.632

----------
Each item that follows carries a reported PBM binding z-score.
System: PPARg DBDmut IVT, anti-PPARg (DBD mutation: PPARg1 K132A/R137A, NR concentration 270 nM)
Experiment: PBM binding z-score (relative to random genomic background probes); higher = stronger binding; sequences stand for … in GC…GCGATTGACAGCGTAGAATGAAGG
// print number alone

Here is how some sequences turned out for PBM binding z-score.
>>> readout_value("GCTAGTTGGTCAGTAAAAGGTAACACACCGGTCG")
0.0528
>>> readout_value("AGTCAAAGTTCATCTATGTAACGTAAGATATGCT")
1.14
>>> readout_value("CCTAACGGGTCAAGGTTATAGCACGGGTGGTACG")
-0.102

QUERY: Reported PBM binding z-score for CTACCAAGGTGAACGAGGTCGTTGATTACTATTC : what is it?
RESULT: -0.713

QUERY: Also, TTAATGAGGTTATAAGATCAGGGAACGTTGCAAA please.
RESULT: 1.53

QUERY: Also, TCTAGTGGGTCACGGAGGTCACACACGACGGGTA please.
RESULT: 0.78

----------
Each item that follows carries a reported PBM binding z-score.
Tested on: PPARa:RXRa (NR concentration 270 nM, RXRa partner concentration 90 nM)
Assay: PBM binding z-score (relative to random genomic background probes); higher = stronger binding; sequences stand for … in GC…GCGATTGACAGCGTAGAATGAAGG
// print number alone

Here is how some sequences turned out for PBM binding z-score.
>>> readout_value("CGTCCAAGGTCAATACTAGGTCAGTGAAAGCATT")
5.33
>>> readout_value("GCGACTGGGGCATGAGCAGGTTACCATAACTTAA")
1.1
>>> readout_value("AGAATGAGGGTAAGATCAGGGAAACAGAATACAT")
0.918
>>> readout_value("TCTAGCAGGCCGGAGGGTCACTCAAGAGGTACGG")
1.69
>>> readout_value("TCTTGTAGATCAAGCAGGTTAAGACAGCCTGAGT")
0.76
>>> readout_value("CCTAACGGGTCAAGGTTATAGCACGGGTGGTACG")
4.48

QUERY: Reported PBM binding z-score for TCATATAGGTAATACAAGTGAAAGTCGGCATCTA : what is it?
RESULT: 1.59

QUERY: Also, TCTTGTAGATCAGCAAGTTAAGAAAGCTGGCCAA please.
RESULT: 0.316

----------
Test system: PPARg:RXRa IVT, anti-PPARg (NR concentration 270 nM, RXRa partner concentration 90 nM)
Test: PBM binding z-score (relative to random genomic background probes); higher = stronger binding; sequences stand for … in GC…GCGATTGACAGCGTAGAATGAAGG
Would you mind classing the entries by PBM binding z-score? Ranges: b0: < 0.7; b1: ≥ 0.7 and < 6; b2: ≥ 6

>>> label("ACATGTAGGTTATCGGGTCATTCAGTTTGCGCAT")
"b2"
>>> label("ATATGTAGGTTAAGGGTCATTCCGGTTGGTTCGC")
"b2"
>>> label("ACTAGTTGGTCAACTGAGGTCACACACAATTCGG")
"b1"
>>> label("GCTGCTACGTCAGGTTGGTCAGCTAACGGGTACG")
"b0"
>>> label("ATATGTAGGTTAGCAGGGGTCATTCAGACTAGGC")
"b2"
>>> label("GCTATCAGTTGAAAGGGCAACCGAATGATTCTCG")
"b0"
>>> label("TTACCAAGGTGCGCTGAGGTCGTTGATCCAACTC")
"b0"
>>> label("ACTAGCAGGCCAAGTTTGGGTCACCCAAACAAAG")
"b1"

QUERY: For this sequence, which bin applies? GCGACTGGGGCATCAGCAGGTTACCGTAACTTAA
RESULT: b1

QUERY: Also, AGAATGAGGTTAAGATCGGGGAAACAGAATACAT please.
RESULT: b1

----------
System: PPARa:RXRa (NR concentration 270 nM, RXRa partner concentration 90 nM)
Assay: PBM binding z-score (relative to random genomic background probes); higher = stronger binding; sequences stand for … in GC…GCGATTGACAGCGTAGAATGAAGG
READOUT_KIND: PBM binding z-score
// print number alone

Here is how some sequences turned out for PBM binding z-score.
>>> readout_value("GGAACGAGGGCAAGTTGAGAGCAGAGTTTGATGG")
1.72
>>> readout_value("CCTCGGAGAACAACAGGAGGTCAGAGCTGCCAGA")
1.82
>>> readout_value("GCTCGGAGGACAAGGTCCGAGCTTTGTCCGTAGA")
-0.595
>>> readout_value("CAAACTATGTCAAGGTCAAAGTCGGTTTGTGCCA")
4.65
>>> readout_value("ACTAGCAGGCCAAGGGTCACTCCAGATTAGTCCG")
4
>>> readout_value("GGAACGAGGGCAAAGTTGCTAGCATCTGTCGACG")
2.65

QUERY: Checklist item: PBM binding z-score tested on PPARa:RXRa (NR concentration 270 nM, RXRa partner concentration 90 nM), entry AGAATGAGGATATTAAGATCAGGGAATTGCGGTC , value?
RESULT: -0.323

QUERY: Also, GGAATGAGGGCATTCGAGTTGATAGCATGGCGAT please.
RESULT: 2.13

QUERY: Also, TAGCCTAGGTAAGATCGGGCCAGTATACGCTATA please.
RESULT: -0.58

QUERY: Also, CATACTAGGTCACCGGAAGGTCAAAGTCCGCATG please.
RESULT: 5.71

QUERY: Also, TGTCATAGTTCAAAGGTAACGTAAGTATCCACAC please.
RESULT: 4.17

QUERY: Also, CCGACTGGGGCATAAGGTTACCCTAAGCCAGCCC please.
RESULT: 1.6
